Test: Pharmacokinetics (PK) study in Balb/c mice
Assay type: in vivo
Details: mouse; female Balb/c mice, PO, 10 mg/kg, whole blood; read-out: Cmax
Readout kind: Cmax (ng/mL)

CNc1cc(-c2ccn3ncc(C(N)=O)c3c2)n(-c2cccc(C)n2)n1 ... 6270
Cc1cccc(-n2nccc2-c2ccn3ncc(C(N)=O)c3c2)n1 ... 5920

====

Biological target: CYP1A2 (Homo sapiens, UniProt P05177)
Construct: purchased Promega
Sequence (P05177 whole entry): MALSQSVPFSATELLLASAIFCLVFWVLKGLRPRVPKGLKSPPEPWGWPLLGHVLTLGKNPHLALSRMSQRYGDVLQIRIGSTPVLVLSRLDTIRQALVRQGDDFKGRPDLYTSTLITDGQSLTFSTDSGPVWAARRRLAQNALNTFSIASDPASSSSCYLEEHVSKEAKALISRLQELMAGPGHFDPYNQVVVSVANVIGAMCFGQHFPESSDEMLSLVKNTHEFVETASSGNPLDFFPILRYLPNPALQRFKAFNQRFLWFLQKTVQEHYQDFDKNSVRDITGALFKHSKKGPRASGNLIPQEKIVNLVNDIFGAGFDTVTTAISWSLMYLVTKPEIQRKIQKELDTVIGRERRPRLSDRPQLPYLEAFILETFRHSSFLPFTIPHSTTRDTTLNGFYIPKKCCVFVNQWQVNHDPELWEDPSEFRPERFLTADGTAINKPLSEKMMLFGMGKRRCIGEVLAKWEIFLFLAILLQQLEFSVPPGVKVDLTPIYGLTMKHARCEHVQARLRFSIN
Test: CYP enzyme inhibition test, P450-Glo CYP1A2 Screening System
Assay type: in vitro ADME
Details: Luciferin-ME 100 µM; read-out: IC50 (µM) CYP1A2
Readout kind: IC50

Consider the reported IC50 for these compounds:
Cc1cccc(-n2nccc2-c2ccn3ncc(C(N)=O)c3c2)n1 ... > 10 µM
Cc1cccc(-n2nc(NCc3ccc(F)cc3)cc2-c2ccn3ncc(C(N)=O)c3c2)n1 ... > 10 µM

Let's switch to this compound now.
Please give the measured IC50 for this compound: CNc1cc(-c2ccn3ncc(C(N)=O)c3c2)n(-c2cccc(C)n2)n1 > 10 µM

====

Experiment: Pharmacokinetics (PK) study in Balb/c mice
Assay type: in vivo
Settings: mouse; female Balb/c mice, PO, 10 mg/kg, whole blood
Readout kind: half-life (h)

1 = Cc1cccc(-n2nccc2-c2ccn3ncc(C(N)=O)c3c2)n1
2 = CNc1cc(-c2ccn3ncc(C(N)=O)c3c2)n(-c2cccc(C)n2)n1
Out of 1 and 2 , name the one with the higher half-life. Pick one; state its label. 2
(2: 1.8 h, 1: 0.52 h)

Hello, the source for this data is patent EP4219453A1, in case you need it.
